Compiled from multiple publications: Ki readings for Coagulation factor XI (Homo sapiens).
Express the result in nM but write the number alone.

Examples with their reported Ki follow.
| compound | measure_name | value_unit | reported_result |
| --- | --- | --- | --- |
| N=C(N)c1ccc(CNC(=O)[C@H](CCC2CCNCC2)NC(=O)[C@@H](CCCc2ccncc2)NS(=O)(=O)Cc2ccccc2)cc1 | Ki | nM | 500 |
| C[C@@H]1CCC[C@H](n2cnc(-c3cc(Cl)ccc3-n3cc(C(F)(F)F)nn3)cc2=O)c2cccc(c2)C2C(CCCN2C)NC1=O (single isomer, unassigned) | Ki | nM | 1130 |
| COC(=O)Nc1ccc2c(c1)NC(=O)[C@@H](C)CCC[C@H](NC(=O)N1CCC[C@@]3(C1)OC(=O)Nc1ccc(Cl)cc13)c1cc-2ccn1 | Ki | nM | 455 |
| O=C([C@H](Cc1ccccc1)n1cnc(-c2cc(Cl)ccc2-n2cc(Cl)nn2)cc1=O)N1CCC(c2ccc(Cl)cc2)CC1 | Ki | nM | 4440 |

Q) Test system Coagulation factor XI (Homo sapiens); read-out Ki; what value for C[C@@H](OCc1ccccc1)[C@H](NC(=O)[C@@H](COC(C)(C)C)NS(=O)(=O)Cc1ccccc1)C(=O)NCc1ccc(C(=N)N)cc1 ?
A) 400

Q) Request - read-out Ki | tested on Coagulation factor XI (Homo sapiens) | compound CC(C)(C)OC[C@@H](NS(=O)(=O)Cc1ccc(C(=O)O)cc1)C(=O)N[C@@H](CO)C(=O)NCc1ccc(C(=N)N)cc1
A) 30
